Target System: FAD-linked sulfhydryl oxidase ALR (Homo sapiens) (UniProt P55789)
Sequence (P55789 whole entry, looked up): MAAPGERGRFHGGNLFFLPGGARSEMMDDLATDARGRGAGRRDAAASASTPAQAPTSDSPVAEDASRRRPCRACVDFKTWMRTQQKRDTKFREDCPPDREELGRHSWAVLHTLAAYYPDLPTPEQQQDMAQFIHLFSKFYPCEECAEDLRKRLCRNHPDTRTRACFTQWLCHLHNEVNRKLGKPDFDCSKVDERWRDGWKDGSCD
Test Name: ALR-catalysed DTT oxidation blockers – biochemical, H2O2 detection, HRP-luminol luminescence, single point, primary screen (AID 485317)
Measurement Parameters: purified ALR, stronger effect = higher value, concentration not given here
About 11,000 (3.8%) of roughly 290,000 compounds were called active. Shown is part of a subset that was picked to be rich in actives.
Value Kind: inhibition (%)
Number only, in %; omit the unit.

Reference set (5 entries):
Ask | What value of inhibition has been recorded for this entry: `NS(=O)(=O)c1ccc(NC(=O)COC(=O)C2(c3ccc(F)cc3)CCCC2)cc1`
Reply | -14.8

Ask | Please give the measured inhibition for this compound: `CCCCOC(=O)CNc1nnc(SCC(=O)OCC)[nH]c1=O`
Reply | 100

Ask | What measured inhibition goes with COc1ccc(C(CNC(=O)c2ccc(NS(=O)(=O)c3ccc(F)c(C)c3)cc2)N(C)C)cc1 (centres undefined) ?
Reply | -5.64

Ask | Which inhibition reading was recorded for the compound `CCOC(=O)c1cc(C)nc(S(C)(=O)=O)c1C#N` ?
Reply | 15.5

Ask | Name the recorded inhibition for `CC1(C)CC(=O)C=C(c2ccc(Cl)c(C(F)(F)F)c2)C1` .
Reply | 3.75

New cases:
Ask | Requested read-out: inhibition. Entry: `C=CCc1cc(S(=O)(=O)c2ccc(O)c(CC=C)c2)ccc1O`
Reply | 87.7

Ask | # inhibition lookup, item `Cc1ccc(-c2cc(=O)[nH]c(NCc3ccccc3)n2)cc1`
Reply | -7.47

Ask | Given the compound CN(C(=O)CSc1nnc(-c2ccc3c(c2)OCO3)o1)C1CCS(=O)(=O)C1 (centres undefined) , what is its reported inhibition?
Reply | -1.02

Ask | Query: inhibition; subject: Cn1c(CC2Sc3ccccc3NC2=O)nnc1SCC(=O)c1ccc(Cl)cc1 (centres undefined)
Reply | 92.8

Ask | Dear colleague, I am looking for the recorded inhibition of the following compound: `Cc1cs/c(=N\N=C\c2ccc(O)cc2)n1Cc1ccco1`
Reply | 98.6

Ask | Report inhibition for `CCOc1ccccc1Oc1cn[nH]c1-c1ccc(OC)cc1O` please.
Reply | 59.2

Ask | What value of measured inhibition is listed for `COc1ccc(-c2cn[nH]c2-c2ccc(OC)cc2)cc1` ?
Reply | 0.7

Ask | Which measured inhibition value corresponds to CC1CC1C(=O)OCC(=O)Nc1cccc(F)c1 (centres undefined) ?
Reply | -3.36

Ask | Please look up its inhibition: `Cn1c(CC(=O)Nc2ccccc2)nnc1SCC(=O)c1ccccc1`
Reply | -3.26

Ask | # inhibition lookup, item `CC(C)(C)OC(=O)N[C@H](C(=O)OC(C)(C)C)c1ccc(Br)cc1`
Reply | -0.888

Ask | What does the record list as inhibition for `CCOC(=O)c1cc(C#N)c(N2CCCCC2)nc1-c1ccccc1` ?
Reply | 6.36

Ask | # lookup: inhibition of `COc1cc(-c2c(-c3ccc4c(c3)OCO4)noc2C)ccc1F`
Reply | 3.17

Ask | Endpoint output: inhibition of O=C(NCC(=O)N1CCCC(C(F)(F)F)C1)c1ccccc1F (centres undefined) . Value?
Reply | -7.32

Ask | # query: inhibition of entry `Cc1onc(-c2ccccc2Cl)c1C(=O)N(Cc1ccc(N(C)C)cc1)C(C)C`
Reply | 9.74

Ask | GET /values?readout=inhibition&item= O=C(O)CC1=C(Nc2ccccc2)C(=O)N(c2ccccc2)C1c1ccc(Cl)cc1 (centres undefined)
Reply | 96.7

Ask | Reported inhibition, compound `O=C(NNc1cc(Cl)cc(Cl)c1)c1c(F)cccc1Cl` : ____
Reply | 3.41

Ask | Any idea what its inhibition is? The compound is `O=C(c1ccncc1)N1CCN(S(=O)(=O)c2cc(C(F)(F)F)cc(C(F)(F)F)c2)CC1`
Reply | -17.2

Ask | For the compound `c1ccc2cc(CCCc3cc4ccccc4cn3)ncc2c1` , what inhibition is on record?
Reply | 2.21

Ask | Please look up its inhibition: `N#Cc1c(-c2cccs2)nc(SCC(=O)c2ccc(Br)cc2)[nH]c1=O`
Reply | 98.5

Ask | Entry `Cn1cccc1C(=O)OCC(=O)NCCc1ccccc1` has what inhibition?
Reply | 5.56

Ask | Entry under review: `C=CCC[C@@H](Cc1ccc(F)cc1)C(=O)OC[C@@H](C)NC(=O)[C@H](CC=C)CC(=O)N(CCO)Cc1ccccc1` . Reported inhibition?
Reply | -10.3

Ask | Which inhibition is reported for this compound? `Cc1ccc(C(=O)CSc2nnc(Cn3nnc4ccccc43)n2C)cc1`
Reply | 39.7

Ask | # input compound: `O=C(Cn1nnc(-c2ccccc2)n1)NC(=O)NC1CCCC1` ; wanted: its inhibition
Reply | -9.99

Ask | Quick check: inhibition of `CN(C)N=Nc1ccc2nc[nH]c2c1` ?
Reply | 92.1
